- Tested on: Staphylococcus aureus
- EXPERIMENT NOTES: Susceptibility testing (MIC) Assay 1, broth microdilution
- Assay type: cell-based
- STATED CONDITIONS: Staphylococcus aureus, in vivo strain, MRQR; read-out: Sau(e) MIC
Listed next: entries and their corresponding MIC.
REPORTED METRIC: MIC (µM)

[
  {
    "SAMPLE SMILES": "C[C@@H]1CN2c3c(cc4c(N5C[C@H](c6ccccn6)OC5=O)noc4c3F)CC3(C(=O)NC(=O)NC3=O)[C@H]2[C@H](C)O1",
    "TESTED ON": "Staphylococcus aureus",
    "UNIT INFO": "µM",
    "MEAS VALUE": 0.39
  },
  {
    "SAMPLE SMILES": "C[C@@H]1CN2c3c(cc4c(N5C(=O)OC[C@@H]5C=NO)noc4c3F)CC3(C(=O)NC(=O)NC3=O)[C@H]2[C@H](C)O1",
    "TESTED ON": "Staphylococcus aureus",
    "UNIT INFO": "µM",
    "MEAS VALUE": 12
  },
  {
    "SAMPLE SMILES": "C[C@@H]1CN2c3c(cc4c(N5C[C@@H](CO)OC5=O)noc4c3F)CC3(C(=O)NC(=O)NC3=O)[C@H]2[C@H](C)O1",
    "TESTED ON": "Staphylococcus aureus",
    "UNIT INFO": "µM",
    "MEAS VALUE": 12
  }
]

----------
- System: Pseudomonas aeruginosa
- EXPERIMENT NOTES: Susceptibility testing (MIC) Assay 2, broth microdilution
- Format: cell-based
- STATED CONDITIONS: PAO1, read-out: Pae MIC

[
  {
    "COMPOUND": "C[C@@H]1CN2c3c(cc4c(N5C(=O)OC[C@H]5c5ncnn5C)noc4c3F)CC3(C(=O)NC(=O)NC3=O)[C@H]2[C@H](C)O1 [Example 69]",
    "MIC": "> 200 µM"
  },
  {
    "COMPOUND": "C#C[C@H]1COC(=O)N1c1noc2c(F)c3c(cc12)CC1(C(=O)NC(=O)NC1=O)[C@H]1[C@H](C)O[C@H](C)CN31 [Example 65]",
    "MIC": "> 200 µM"
  },
  {
    "COMPOUND": "C[C@@H]1CN2c3c(cc4c(N5C(=O)OC[C@@H]5[C@@H](O)CO)noc4c3F)CC3(C(=O)NC(=O)NC3=O)[C@H]2[C@H](C)O1 [Example 72]",
    "MIC": "> 200 µM"
  },
  {
    "COMPOUND": "C[C@@H]1CN2c3c(cc4c(N5C(=O)OC[C@H]5c5ccccn5)noc4c3F)CC3(C(=O)NC(=O)NC3=O)[C@H]2[C@H](C)O1 [Example 55]",
    "MIC": "> 200 µM"
  },
  {
    "COMPOUND": "C[C@@H]1CN2c3c(cc4c(N5C(=O)OC[C@H]5C)noc4c3F)CC3(C(=O)NC(=O)NC3=O)[C@H]2[C@H](C)O1 [Example 2]",
    "MIC": "> 200 µM"
  },
  {
    "COMPOUND": "C[C@@H]1CN2c3c(cc4c(N5C[C@@H](CF)OC5=O)noc4c3Cl)CC3(C(=O)NC(=O)NC3=O)[C@H]2[C@H](C)O1 [Example 32]",
    "MIC": "200 µM"
  }
]

----------
- Tested on: Haemophilus influenzae
- EXPERIMENT NOTES: Susceptibility testing (MIC) Assay 2, broth microdilution
- Type: cell-based
- STATED CONDITIONS: ATCC 51907, in vivo strain, read-out: Hin MIC
Listed next: entries and their corresponding log10(MIC).
REPORTED METRIC: log10(MIC) (log10 of the value in µM)

[
  {
    "MOLECULE": "COC[C@H]1COC(=O)N1c1noc2c(F)c3c(cc12)CC1(C(=O)NC(=O)NC1=O)[C@H]1[C@H](C)O[C@H](C)CN31 (single isomer, unassigned)",
    "REPORTED METRIC": "log10(MIC)",
    "MEAS VALUE": -0.26
  },
  {
    "MOLECULE": "C[C@@H]1CN2c3c(cc4c(N5C(=O)OC[C@@H]5C5CCOCC5)noc4c3F)CC3(C(=O)NC(=O)NC3=O)[C@H]2[C@H](C)O1",
    "REPORTED METRIC": "log10(MIC)",
    "MEAS VALUE": 1.40
  },
  {
    "MOLECULE": "C[C@@H]1CN2c3c(cc4c(N5C(=O)OC[C@@H]5CN=[N+]=[N-])noc4c3F)CC3(C(=O)NC(=O)NC3=O)[C@H]2[C@H](C)O1",
    "REPORTED METRIC": "log10(MIC)",
    "MEAS VALUE": 0.79
  },
  {
    "MOLECULE": "C[C@@H]1CN2c3c(cc4c(N5C(=O)OC[C@@H]5CCCO)noc4c3Cl)CC3(C(=O)NC(=O)NC3=O)[C@H]2[C@H](C)O1",
    "REPORTED METRIC": "log10(MIC)",
    "MEAS VALUE": -0.11
  },
  {
    "MOLECULE": "C[C@@H]1CN2c3c(cc4c(N5C(=O)OC[C@H]5C5CCOCC5)noc4c3F)CC3(C(=O)NC(=O)NC3=O)[C@H]2[C@H](C)O1",
    "REPORTED METRIC": "log10(MIC)",
    "MEAS VALUE": -0.41
  }
]

----------
- TESTED ON: Escherichia coli DNA gyrase A/B tetramer (Escherichia coli (strain K12), UniProt P0AES4+P0AES6)
- EXPERIMENT NOTES: DNA gyrase supercoiling activity fluorescence polarisation assay
- Type: biochemical
- STATED CONDITIONS: Eco Gyr FP Mean IC50, E. coli DNA gyrase supercoiling, 0.3 mM ATP
- Procedure: In a black, 384-well polystyrene assay plate, 30 microliters/well of 5 nM Escherichia coli DNA gyrase A/B tetramer and 130 micrograms/mL of topologically relaxed plasmid containing the triplex-forming sequence […] After 60 minutes, the fluorescence anisotropy of the BODIPY-FL was measured in a Tecan Ultra plate reader, using 485 nm excitation and 535 nm emission filters equipped with polarizers. The IC50 was determined by nonlinear regression using two control reactions.
pIC50: −log10 of the molar value.
Listed next: entries and their corresponding pIC50.
REPORTED METRIC: pIC50

[
  {
    "COMPOUND": "C[C@@H]1CN2c3c(cc4c(N5C[C@@H](c6ccccn6)OC5=O)noc4c3F)CC3(C(=O)NC(=O)NC3=O)[C@H]2[C@H](C)O1 [Example 54]",
    "MEAS VALUE": 6.03
  },
  {
    "COMPOUND": "C[C@@H]1CN2c3c(cc4c(N5C[C@H](CN=[N+]=[N-])OC5=O)noc4c3F)CC3(C(=O)NC(=O)NC3=O)[C@H]2[C@H](C)O1 [Example 44]",
    "MEAS VALUE": 6.28
  },
  {
    "COMPOUND": "C[C@@H]1CN2c3c(cc4c(N5C[C@@H](CF)OC5=O)noc4c3Cl)CC3(C(=O)NC(=O)NC3=O)[C@H]2[C@H](C)O1 [Example 32]",
    "MEAS VALUE": 6.20
  }
]

----------
- EXPERIMENT NOTES: Plasma pharmacokinetics in S. pyogenes infected mice
- Format: in vivo
- STATED CONDITIONS: mouse, nominal dose 60 mg/kg (measured 44.2), ip, with ABT
- Protocol: Groups of satellite mice infected with S. pyogenes, as described above, were used for determining plasma concentrations. Dosing started 2 hours after infection and whole blood samples were taken at 0.5, 1, 2, 4, 6, 8, 12 and 24 h. […] Biological samples containing Example 5 were extracted using protein precipitation. […] A Sciex API 4000, controlled by Analyst v1.4.2, was used for the acquisition of the data and the quantification of Example 5. […]

[
  {
    "SAMPLE SMILES": "C[C@@H]1CN2c3c(cc4c(N5C(=O)OC[C@@H]5C)noc4c3F)CC3(C(=O)NC(=O)NC3=O)[C@H]2[C@H](C)O1",
    "AUC(0-inf), µg·h/mL": 153
  }
]

----------
- Tested on: Staphylococcus aureus
- EXPERIMENT NOTES: Susceptibility testing (MIC) Assay 1, broth microdilution
- Type: cell-based
- STATED CONDITIONS: Staphylococcus aureus, in vivo strain, MRQR; read-out: Sau(e) MIC
REPORTED METRIC: log10(MIC) (log10 of the value in µM)

[
  {
    "COMPOUND": "C[C@@H]1CN2c3c(cc4c(N5C[C@@H](CF)OC5=O)noc4c3Cl)CC3(C(=O)NC(=O)NC3=O)[C@H]2[C@H](C)O1",
    "log10(MIC)": -0.11
  },
  {
    "COMPOUND": "CC[C@H]1COC(=O)N1c1noc2c(F)c3c(cc12)CC1(C(=O)NC(=O)NC1=O)[C@H]1[C@H](C)O[C@H](C)CN31",
    "log10(MIC)": 0.79
  },
  {
    "COMPOUND": "C[C@@H]1CN2c3c(cc4c(N5C(=O)OC[C@H]5Cc5ccccc5)noc4c3F)CC3(C(=O)NC(=O)NC3=O)[C@H]2[C@H](C)O1",
    "log10(MIC)": 1.08
  },
  {
    "COMPOUND": "C[C@@H]1CN2c3c(cc4c(N5C(=O)OC[C@@H]5CCCO)noc4c3F)CC3(C(=O)NC(=O)NC3=O)[C@H]2[C@H](C)O1",
    "log10(MIC)": 1.08
  },
  {
    "COMPOUND": "C[C@@H]1CN2c3c(cc4c(N5C(=O)OC[C@H]5CF)noc4c3F)CC3(C(=O)NC(=O)NC3=O)[C@H]2[C@H](C)O1",
    "log10(MIC)": 0.20
  },
  {
    "COMPOUND": "C[C@@H]1CN2c3c(cc4c(N5C(=O)O[C@@H](C)[C@H]5C)noc4c3F)CC3(C(=O)NC(=O)NC3=O)[C@H]2[C@H](C)O1",
    "log10(MIC)": 0.20
  },
  {
    "COMPOUND": "C[C@@H]1CN2c3c(cc4c(N5C[C@H](CO)OC5=O)noc4c3F)CC3(C(=O)NC(=O)NC3=O)[C@H]2[C@H](C)O1",
    "log10(MIC)": 1.40
  },
  {
    "COMPOUND": "CSC[C@H]1COC(=O)N1c1noc2c(F)c3c(cc12)CC1(C(=O)NC(=O)NC1=O)[C@H]1[C@H](C)O[C@H](C)CN31",
    "log10(MIC)": -0.41
  },
  {
    "COMPOUND": "C[C@@H]1CN2c3c(cc4c(N5C[C@@H](CF)OC5=O)noc4c3F)CC3(C(=O)NC(=O)NC3=O)[C@H]2[C@H](C)O1",
    "log10(MIC)": -0.11
  },
  {
    "COMPOUND": "COC[C@H]1COC(=O)N1c1noc2c(F)c3c(cc12)CC1(C(=O)NC(=O)NC1=O)[C@H]1[C@H](C)O[C@H](C)CN31 (single isomer, unassigned) [Example 17]",
    "log10(MIC)": -0.11
  },
  {
    "COMPOUND": "C[C@@H]1CN2c3c(cc4c(N5C[C@H](C)OC5=O)noc4c3F)CC3(C(=O)NC(=O)NC3=O)[C@H]2[C@H](C)O1",
    "log10(MIC)": 0.20
  }
]
